Assay: qHTS Assay for Enhancers of SMN2 Splice Variant Expression; further: nearly all actives have a fitted effect of over 55% in size
Details: HEK293 SMN2-luciferase splicing reporter, luminescence, 30-36 h; series mostly up to 46.1 µM
Source text: NIH Chemical Genomics Center [NCGC] NIH Molecular Libraries Probe Production centers Network [MLPCN] MLPCN Grant: R03 MH084179-01 Assay Submitter (PI): Elliot Androphy NCGC Assay Overview: Spinal muscular atrophy (SMA) is caused by insufficient levels of the survival motor neuron protein SMN. The SMN locus on chromosome 5q13 contains two inverted copies of SMN called SMN1 and SMN2 which are 99% identical at the amino acid level. […]
Screen size: about 210,000 compounds; about 5,900 (2.8%) were called active. Inconclusive results (about 5%) are left out. The call rests on the fitted dose curve; in most records, active means well fitted activation curve with a large enough effect; inconclusive means small, poorly fitted or top-dose-only effect; inactive means no such curve, though single readings can be large or run the other way. For the sample, actives were picked, then their nearest neighbours and some compounds at random.
Parameter call: string, one of active, inactive

Known results for compounds:
* CCOc1ccc(OCc2cccc(C(=O)N(CC)CC)c2)cc1 | active
* O=C(Cc1ccc(Cl)cc1)Nc1ccc2nn(-c3ccc(Cl)cc3)nc2c1 | inactive
* COCCNC(=O)C(c1ccc(C)o1)N(Cc1ccccc1)C(=O)Cn1nnc2ccccc21 (stereo not drawn) | inactive
* CCN1CCN(Cc2c(O)ccc3oc(C)c(C(=O)Nc4ccc(C)cc4C)c23)CC1 | inactive
* Cc1ccc(C(=O)COc2cccc(NC(=O)c3ccco3)c2)cc1 | inactive

Field: next compound
Request: Any idea what this test logged for COc1ccc(CNC(=O)c2cc3c(-c4ccccc4F)nn(C)c3s2)c(OC)c1 ?
Response: inactive

====

assay: qHTS Assay for Enhancers of SMN2 Splice Variant Expression; conditions: HEK293 SMN2-luciferase splicing reporter, luminescence, 30-36 h; series mostly up to 46.1 µM; further: nearly all actives have a fitted effect of over 55% in size
In all, about 210,000 compounds went through this assay and about 5,900 (2.8%) were called active. Inconclusive results (about 5%) are left out. Many of the other results were omitted from the sample, so actives are more common in it than they were.
measured_endpoint: outcome

Sample records with outcome:
• Cc1cccc(NC(=O)c2ccccc2NC(=O)C(C)(C)C)n1 = inactive
• CCc1ccc(C2CC(=O)c3c([nH]c(C(=O)OCc4ccc(C)cc4)c3C)C2)cc1 (stereo not given) = inactive
• CCC1CCCCN1C(=O)Cn1c(=O)n(CCCCCC(=O)NCc2ccccc2)c(=O)c2sccc21 (stereo not given) = inactive
• Cc1cccc(NC(=O)c2cc(N3C(=O)CCC3=O)ccc2Cl)n1 = inactive

Request: State, in one line, measured outcome of CCOc1ccc(OCC)c(NC(=O)CN(c2ccc(C)cc2)S(=O)(=O)c2c(C)n[nH]c2C)c1
Response: inactive

====

assay: qHTS Assay for Enhancers of SMN2 Splice Variant Expression; details: HEK293 SMN2-luciferase splicing reporter, luminescence, 30-36 h; series mostly up to 46.1 µM; further: nearly all actives have a fitted effect of over 55% in size
The campaign covered roughly 210,000 compounds. About 5,900 (2.8%) were called active. Another 5% or so got no clear call; they are omitted. Calls come from the whole dose curve; as a rule, active = well fitted activation curve with a large enough effect; inconclusive = small, poorly fitted or top-dose-only effect; inactive = no such curve, though single readings can be large or run the other way. The sample as a whole holds a higher share of actives than the screen did.
Parameter call: string, one of active, inactive

• COc1ccccc1-c1nc(SC)n[nH]1 = inactive
• Cc1ccc(-n2nc(CO)c(C(=O)NCCc3ccccc3)n2)cc1 = inactive
• COc1cccc(-c2nnc(SCC(=O)N3CCC(C)CC3)o2)c1 = inactive
• CCCOc1cc(C)c(S(=O)(=O)n2nnc3ccccc32)cc1C = inactive
• COc1cc(C)c(Cl)cc1S(=O)(=O)n1ccnc1 = inactive
• CCCOc1ccccc1-c1nc(SCCC(=O)O)n[nH]1 = active
• CCCOc1ccccc1C(=O)NCCCC(=O)O = inactive
• CCOC(=O)c1c(NC(=O)c2cc(CC)on2)sc(C(C)=O)c1C = inactive
• COc1ccc(CN2C(=O)C(NC(=O)c3cccc(C)c3)(C(F)(F)F)N=C2c2ccccc2)cc1 (stereo unspecified) = inactive
• CCOc1cc(C)c(Cl)cc1S(=O)(=O)n1nnc2ccccc21 = active

Field: next compound
Request: Any idea what this test logged for COc1cccc(NC(=O)N(Cc2cn(C)c3ccccc23)C2CCCCCC2)c1 ?
Response: inactive

====

experiment: qHTS Assay for Enhancers of SMN2 Splice Variant Expression; conditions: HEK293 SMN2-luciferase splicing reporter, luminescence, 30-36 h; series mostly up to 46.1 µM; further: nearly all actives have a fitted effect of over 55% in size
Screen size: about 210,000 compounds; about 5,900 (2.8%) were called active. Not shown: some 5% with an inconclusive outcome. Calls follow the shape of the dose curve; as a rule, active = well fitted activation curve with a large enough effect; inconclusive = small, poorly fitted or top-dose-only effect; inactive = no such curve, though single readings can be large or run the other way. Only a selection was taken, and actives are over-represented in it overall.
Parameter call: string, one of active, inactive

• Cc1ccc(C(=O)CS(C)(=O)=O)cc1 = inactive
• Cc1ccc(NS(=O)(=O)c2ccc3c(c2)CC(=O)N3)cc1Cl = inactive
• O=C(c1ccc(C(F)(F)F)cc1)N1CCC(c2nc(-c3ccc(S(=O)(=O)N4CCCC4)cc3)no2)CC1 = inactive
• Cc1c(N=Nc2ccc(N(C)C)cc2)c(=O)n(-c2ccccc2)n1C = active
• CCOc1ccc(CCNC(=O)CN(c2ccc(C)cc2)S(=O)(=O)N(C)C)cc1OCC = inactive
• Cc1ccc(C(=O)Cn2cccn2)cc1 = inactive
• Cc1ccc(C(=O)Cc2nnc(C)s2)cc1 = active
• CCCCCCn1nnc2sc(-c3ccccc3)cc2c1=O = inactive
• O=C(Nc1ccccc1)c1cccnc1Nc1ccccc1 = inactive
• Cc1ccc2oc(=O)c3cnn(CC(=O)NCc4ccccc4Cl)c3c2c1 = inactive

Field: next compound
Request: Any idea what this test logged for Cc1ccc(S(=O)(=O)Nc2ccccc2CNc2c(C)n(C)n(-c3ccccc3)c2=O)cc1 ?
Response: inactive

====

experiment: qHTS Assay for Enhancers of SMN2 Splice Variant Expression; conditions: HEK293 SMN2-luciferase splicing reporter, luminescence, 30-36 h; series mostly up to 46.1 µM; further: nearly all actives have a fitted effect of over 55% in size
The campaign covered roughly 210,000 compounds. About 5,900 (2.8%) were called active. Roughly 5% stayed inconclusive and do not appear here. The call rests on the fitted dose curve; in most records, active means well fitted activation curve with a large enough effect; inconclusive means small, poorly fitted or top-dose-only effect; inactive means no such curve, though single readings can be large or run the other way. This excerpt belongs to a sample that is enriched for actives.
Parameter call: string, one of 1 (active), -1 (inactive)

Request: Any idea what this test logged for O=C(CCSc1ccccc1)N1CCN(c2ccccc2F)CC1 ?
Response: 1

Request: Any idea what this test logged for CCCCn1c(CNC(=O)C23CC4CC(CC(C4)C2)C3)nnc1SCC(=O)Nc1ccc(C)cc1 ?
Response: -1

====

assay: qHTS Assay for Enhancers of SMN2 Splice Variant Expression; conditions: HEK293 SMN2-luciferase splicing reporter, luminescence, 30-36 h; series mostly up to 46.1 µM; further: nearly all actives have a fitted effect of over 55% in size; further: potency means the concentration at half of the fitted maximal effect
Among all 210,000 compounds or so, about 5,900 (2.8%) were called active. About 5% were inconclusive and are not listed. The list comes from a sample in which actives are over-represented; it also holds close analogues and randomly drawn compounds.
measured_endpoint: Potency

Sample records with Potency:
• COc1ccccc1N=Cc1c(O)c2ccccc2oc1=O = inactive
• O=C(Nc1ccc(-c2nnc(-c3ccccc3)o2)cc1)C1CCCO1 (stereo unspecified) = 3.55 µM (active)
• CCOC(=O)N1CCC(NC(=O)c2ccc3nc(N4CCOCC4)sc3c2)CC1 = inactive
• Cc1cc(NC(=O)Nc2ccccc2)n(-c2ccccc2)n1 = inactive
• CCOC(=O)CSc1nc2ccc(C)cc2[nH]1 = inactive
• COc1ccc2nc(NC(=O)[C@@H]3CCCN3C(=O)c3cccs3)sc2c1 = inactive
• O=C(NC1=NCCS1)c1ccc(Cl)s1 = 15.8 µM (active)
• CCOc1ccc(S(=O)(=O)Nc2nc3cc(OC)ccc3s2)cc1 = inactive

Request: State, in one line, measured Potency of O=[N+]([O-])c1ccccc1N/N=C1\CCc2ccccc21
Response: 11.2 µM (active)

Request: State, in one line, measured Potency of Cc1cc2nc(SCCN3CCOCC3)[nH]c2cc1C
Response: 14.1 µM (active)

Request: State, in one line, measured Potency of O=[N+]([O-])c1cc(C(F)(F)F)ccc1NN=C1CCCC1
Response: inactive

Request: State, in one line, measured Potency of CCN(CC)c1cc(NC2CCCCC2)c2c3c(onc13)-c1ccccc1C2=O
Response: inactive

Request: State, in one line, measured Potency of CN(C)S(=O)(=O)c1ccc2oc(SCC(=O)Nc3ccccc3F)nc2c1
Response: 11.2 µM (active)

====

assay: qHTS Assay for Enhancers of SMN2 Splice Variant Expression; conditions: HEK293 SMN2-luciferase splicing reporter, luminescence, 30-36 h; series mostly up to 46.1 µM; further: nearly all actives have a fitted effect of over 55% in size; further: potency means the concentration at half of the fitted maximal effect
Among all 210,000 compounds or so, about 5,900 (2.8%) were called active. Another 5% or so got no clear call; they are omitted. The list comes from a sample in which actives are over-represented; it also holds close analogues and randomly drawn compounds.
measured_endpoint: Potency

* CCCCSc1nnc(-c2ccc(C)cc2)o1 | 11.2 µM (active)
* CC(C)CC(=O)NC(=S)NCc1ccccc1 | inactive
* COc1ccc(NC(=O)CC2COc3ccccc3O2)c(OC)c1 (stereo not drawn) | inactive

====

assay: qHTS Assay for Enhancers of SMN2 Splice Variant Expression; details: HEK293 SMN2-luciferase splicing reporter, luminescence, 30-36 h; series mostly up to 46.1 µM; further: nearly all actives have a fitted effect of over 55% in size
Hit rate of the full screen: of about 210,000 compounds, about 5,900 (2.8%) were called active. About 5% were inconclusive and are not listed. The call rests on the fitted dose curve; in most records, active means well fitted activation curve with a large enough effect; inconclusive means small, poorly fitted or top-dose-only effect; inactive means no such curve, though single readings can be large or run the other way. This excerpt belongs to a sample that is enriched for actives.
Parameter call: string, one of active, inactive

Known results for compounds:
- O=C(Nc1cccnc1)c1ccc2c(c1)OCO2: inactive
- Cc1cc(C)cc(NC(=O)Cc2csc(C)n2)c1: inactive
- Cc1sc2ncn(CC(=O)N3CCN(c4ccc(F)cc4)CC3)c(=O)c2c1S(=O)(=O)N1CCN(c2ncccn2)CC1: inactive
- COC(=O)c1ccc(C2C(C(=O)Nc3ccccc3)=C(C)Nc3nc4ccccc4n32)cc1 (centres undefined): inactive
- Cc1ccc(-c2noc(CSc3nnc(-c4cccs4)n3C)n2)cc1: inactive
- S=C(NCc1ccc2c(c1)OCO2)NCc1ccco1: inactive
- Cc1cc(C(=O)NCCCc2ccccc2)no1: inactive
- Cc1cc(NC(=O)Cn2nc(C(F)(F)F)c3c2CCCC3)no1: active
- NC(=O)c1ccccc1NC(=O)c1ccccc1F: inactive
- O=C(NCCc1ccccc1)c1ccc(OCCOc2ccccc2)cc1: inactive

Request: Any idea what this test logged for CC(C)Cc1cc(C(=O)NCCc2ccccc2)no1 ?
Response: active

Request: Any idea what this test logged for COc1ccc(CNc2nc(-c3ccc(Cl)cc3)cc(C(F)(F)F)n2)cc1 ?
Response: inactive

Request: Any idea what this test logged for C/C(=N/NC(=O)CCc1ccccc1)c1ccco1 ?
Response: inactive
